Below is a list of entries, each paired with its recorded INHIBITION value.
System: Plasmodium berghei
assay.comment: Screen against P. berghei liver stage (PbLuc), transformed with Luciferase, at 10uM
Assay type: functional, HepG2
reported.conditions: tested at 10 uM
Among all 69,000 compounds or so, about 8,600 (12%) showed an effect of 50% or more. The sample holds strong results, similar compounds and a random draw of the others, so the mix is not that of the screen.
Report the figure in % without appending any unit label.

In the examples that follow, each entry is paired with its recorded INHIBITION.
Cc1cnc(C(=O)N2CCN(Cc3csc(C)n3)CC2)cn1
-26.1
COCCN1CCN(C(C)c2nc(C3CC3)no2)CC1 (stereo not given)
28.6
CCc1noc(C(C)N2CCCN(Cc3noc(C4CC4)n3)CC2)n1 (stereo not given)
15.7

Sample COc1ccc(CCC(=O)N(C)Cc2c(C)nn(C)c2C)cc1 ; INHIBITION observed: 40.9

Sample CCc1noc(C(C)N2CCN(Cc3noc(C)n3)CC2)n1 (stereo not given) ; INHIBITION observed: 61.3
